Each recorded value in this set is attributed to ChEMBL document CHEMBL4715854.

Assay: AUC (0 to 24 hrs) in Crl:CD (SD) rat at 10 mg/kg, po qd treated for 1 day measured by LC-MS/MS analysis
Format: ADME, organism-based
Design: route oral, dose 10 mg/kg, time 1 day
Settings: in vivo
Reported property: AUC at 24 h (ng·h/mL)

- Line notation: "CC(C)Oc1cc(NC(=O)N2CCCc3cc(CN4CCCC4=O)c(C=O)nc32)ncc1C#N"
  Reported property: "AUC at 24 h"
  Observed value: 2830

----------
Experiment: Volume of distribution at steady state in C57BL/6 mouse at 0.5 mg/kg, iv measured up to 24 hrs by LC-MS/MS analysis
Type: ADME, organism-based
Conditions: in vivo, read-out: Vdss

- Line notation: "CC(C)Oc1cc(NC(=O)N2CCCc3cc(CN4CCCC4=O)c(C=O)nc32)ncc1C#N"
  Vd [L/kg]: 1.4

----------
Assay: AUC (0 to 24 hrs) in Crl:CD (SD) rat at 30 mg/kg, po qd treated for 1 day measured by LC-MS/MS analysis
Assay type: ADME, organism-based
Parameters: route oral, time 1 day, dose 30 mg/kg
Conditions: in vivo

- Line notation: "CC(C)Oc1cc(NC(=O)N2CCCc3cc(CN4CCCC4=O)c(C=O)nc32)ncc1C#N"
  Value unit: "ng·h/mL"
  AUC at 24 h: 5400

----------
# clearance listing for each entry below
Experiment: Clearance in Crl:CD (SD) rat at 1 mg/kg, iv or 3 mg/kg, po measured up to 24 hrs by LC-MS/MS analysis
Assay type: ADME, organism-based
Settings: in vivo

- Line notation: "N#Cc1ccc(NC(=O)N2CCCc3ccc(C=O)nc32)nc1"
  clearance [mL/min/kg]: 44
- Line notation: "CC(C)Oc1cc(NC(=O)N2CCCc3cc(CN4CCCC4=O)c(C=O)nc32)ncc1C#N"
  clearance [mL/min/kg]: 21
- Line notation: "COCCNc1cc(NC(=O)N(C)c2ccc(CN3CCN(C)CC3=O)c(C=O)n2)ncc1C#N"
  clearance [mL/min/kg]: 88
- Line notation: "COCCNc1cc(NC(=O)N2CCCc3cc(C(F)F)c(C=O)nc32)ncc1C#N"
  clearance [mL/min/kg]: 40

----------
Assay: Dissociation constant, pKa of compound by potentiometric titration method
Type: physicochemical
Reported property: pKa

- Line notation: "COCCOc1cc(NC(=O)N2CCCc3cc(CN4CCN(C)CC4=O)c(C=O)nc32)ncc1C#N"
  Reported property: "pKa"
  Observed value: 5.3

----------
Assay: Metabolic stability in rat liver microsomes assessed as parent compound remaining incubated for 60 mins by HPLC/MS analysis
Type: ADME, Microsome
Details: read-out: Stabilty

- Line notation: "N#Cc1ccc(NC(=O)N2CCCc3ccc(C=O)nc32)nc1"
  remaining at 1 h: "7%"

----------
// values below are reported AUC/dose
Test: Dose normalized AUC in Crl:CD (SD) rat at 1 mg/kg, iv measured up to 24 hrs by LC-MS/MS analysis
Assay type: ADME, organism-based
Details: in vivo

- Line notation: "COCCNc1cc(NC(=O)N2CCCc3cc(CN(C)C(C)=O)c(C=O)nc32)ncc1C#N"
  Value unit: "nM·h"
  AUC/dose: 2307
- Line notation: "CC(C)Oc1cc(NC(=O)N2CCCc3cc(CN4CCCC4=O)c(C=O)nc32)ncc1C#N"
  Value unit: "nM·h"
  AUC/dose: 1768
- Line notation: "COCCNc1cc(NC(=O)N2CCCc3cc(C(F)F)c(C=O)nc32)ncc1C#N"
  Value unit: "nM·h"
  AUC/dose: 964
- Line notation: "COCCNc1cc(NC(=O)N2CCCc3cc(-c4cnc(C)s4)c(C=O)nc32)ncc1C#N"
  Value unit: "nM·h"
  AUC/dose: 4703

----------
Test: Half life in rat intestinal S9 fraction in presence of NADPH
Format: ADME, subcellular, Intestine

- Line notation: "COCCOc1cc(NC(=O)N2CCCc3cc(CN4CCN(C)CC4=O)c(C=O)nc32)ncc1C#N"
  half-life: "> 2 h"

----------
Experiment: Half life in rat liver S9 fraction at 1 uM in presence of NADPH incubated upto 120 mins by LC-MS/MS analysis
Type: ADME, subcellular
Reported property: half-life at 1 µM

- Line notation: "COCCOc1cc(NC(=O)N2CCCc3cc(CN4CCN(C)CC4=O)c(C=O)nc32)ncc1C#N"
  Reported property: "half-life at 1 µM"
  Observed value: "> 2 h"

----------
Assay: Oral bioavailability in C57BL/6 mouse at 3 mg/kg measured upto 24 hrs by LC-MS/MS analysis
Assay type: ADME, organism-based
Settings: in vivo

- Line notation: "COCCNc1cc(NC(=O)N2CCCc3cc(CO)c(C=O)nc32)ncc1C#N"
  Value unit: "%"
  bioavailability: 22

----------
Assay: Permeability of the compound in human Caco-2 cells assessed as compound recovery at 10 uM measured after 2 hrs by LC/MS/MS analysis
Type: ADME, cell-based
Conditions: read-out: Drug recovery

- Line notation: "N#Cc1ccc(NC(=O)N2CCCc3ccc(C=O)nc32)nc1"
  recovery at 2 h, 10 µM: "< 10%"
- Line notation: "N#Cc1ccc(NC(=O)N2CCCc3cc(C4CC4)c(C=O)nc32)nc1"
  recovery at 2 h, 10 µM: "< 10%"
- Line notation: "COCCNc1cc(NC(=O)N2CCCc3cc(CO)c(C=O)nc32)ncc1C#N"
  recovery at 2 h, 10 µM: "< 10%"
- Line notation: "COCCOc1cc(NC(=O)N2CCCc3cc(Br)c(C=O)nc32)ncc1C#N"
  recovery at 2 h, 10 µM: "< 10%"
- Line notation: "O=Cc1nc2c(C(=O)Nc3ccc(C(F)(F)F)cn3)cccc2cc1O"
  recovery at 2 h, 10 µM: "< 10%"
- Line notation: "Cc1cc2c(nc1C=O)N(C(=O)Nc1ccc(C#N)cn1)CCC2"
  recovery at 2 h, 10 µM: "< 10%"
- Line notation: "CC(C)COc1cc(N2CCC(N(C)C)CC2)ccc1Nc1ncc(C#N)c(N[C@H]2[C@@H](C(N)=O)[C@@H]3C=C[C@H]2C3)n1"
  recovery at 2 h, 10 µM: "< 10%"
- Line notation: "COCCNc1cc(NC(=O)N2CCCc3cc(N4CCOCC4=O)c(C=O)nc32)ncc1C#N"
  recovery at 2 h, 10 µM: "< 10%"

----------
Assay: AUC (0 to 24 hrs) in Crl:CD (SD) rat at 100 mg/kg, po qd treated for 1 day measured by LC-MS/MS analysis
Format: ADME, organism-based
Design: route oral, time 1 day, dose 100 mg/kg
Settings: in vivo

- Line notation: "CC(C)Oc1cc(NC(=O)N2CCCc3cc(CN4CCCC4=O)c(C=O)nc32)ncc1C#N"
  AUC at 24 h [µg·h/mL]: 18.7

----------
Experiment: Clearance in dog liver microsome at 10 mM measured after 15 mins in presence of NADPH by LC-MS analysis
Format: ADME, Canis lupus familiaris
Settings: liver microsomes, read-out: CLH
Reported property: microsomal CLint at […], 10000 µM (µL/min/mg)

- Line notation: "COCCOc1cc(NC(=O)N2CCCc3cc(CN4CCN(C)CC4=O)c(C=O)nc32)ncc1C#N"
  Reported property: "microsomal CLint at […], 10000 µM"
  Value unit: "µL/min/mg"
  Observed value: 34

----------
Experiment: Half life in mouse liver S9 fraction at 1 uM in presence of NADPH incubated upto 120 mins by LC-MS/MS analysis
Assay type: ADME, subcellular

- Line notation: "COCCOc1cc(NC(=O)N2CCCc3cc(CN4CCN(C)CC4=O)c(C=O)nc32)ncc1C#N"
  half-life at 1 µM: "> 2 h"

----------
Assay: Half life in mouse intestinal S9 fraction in presence of NADPH
Type: ADME, subcellular, Intestine
Reported property: half-life

- Line notation: "COCCOc1cc(NC(=O)N2CCCc3cc(CN4CCN(C)CC4=O)c(C=O)nc32)ncc1C#N"
  Observed value: "> 120 min"

----------
Assay: Lipophilicity, log D of the compound in 1-octanol at pH 7.4 by potentiometric titration method
Format: physicochemical
Parameter: logD. Scope: all listed entries.

- Line notation: "N#Cc1ccc(NC(=O)N2CCCc3ccc(C=O)nc32)nc1"
  logD: 2.9
- Line notation: "O=Cc1ccc2c(n1)N(C(=O)Nc1ccc(C(F)(F)F)cn1)CCC2"
  logD: 4.2

----------
Test: Volume of distribution at steady state in Crl:CD (SD) rat at 1 mg/kg, iv or 3 mg/kg, po measured upto 24 hrs by LC-MS/MS analysis
Assay type: ADME, organism-based
Settings: in vivo, read-out: Vdss
Form field: Vd (one value per entry).

- Line notation: "N#Cc1ccc(NC(=O)N2CCCc3ccc(C=O)nc32)nc1"
  Vd (L/kg): 3.4
- Line notation: "COCCOc1cc(NC(=O)N2CCCc3cc(CO)c(C=O)nc32)ncc1C#N"
  Vd (L/kg): 2.5
- Line notation: "COCCNc1cc(NC(=O)N2CCCc3cc(-c4cnc(C)s4)c(C=O)nc32)ncc1C#N"
  Vd (L/kg): 1.5
- Line notation: "CC(C)Oc1cc(NC(=O)N2CCCc3cc(CN4CCCC4=O)c(C=O)nc32)ncc1C#N"
  Vd (L/kg): 7.2
- Line notation: "COCCNc1cc(NC(=O)N2CCCc3cc(CN(C)C(C)=O)c(C=O)nc32)ncc1C#N"
  Vd (L/kg): 8.6
- Line notation: "COCCOc1cc(NC(=O)N2CCCc3cc(CN4CCN(C)CC4=O)c(C=O)nc32)ncc1C#N"
  Vd (L/kg): 3.9
- Line notation: "COCCNc1cc(NC(=O)N2CCCc3cc(C(F)F)c(C=O)nc32)ncc1C#N"
  Vd (L/kg): 4.7
